details: in acetonitrile, 298.15 K
Test readout: solubility (mole fraction)
// keep it numeric: no unit symbol after the value

input: Consider the molecule CCC[C@@H]1C[C@@H](C(=O)N[C@@H]([C@H]2O[C@H](SC)[C@H](O)[C@H]3OC(C)(C)O[C@H]32)[C@H](C)Cl)N(C)C1 and give its measured solubility (mole fraction).
output: 0.0098

* * *

conditions: in acetone, 313.15 K
Test readout: solubility (mole fraction)

input: Bench note: what solubility (mole fraction) did CCC[C@@H]1C[C@@H](C(=O)N[C@@H]([C@H]2O[C@H](SC)[C@H](O)[C@H]3OC(C)(C)O[C@H]32)[C@H](C)Cl)N(C)C1 show?
output: 0.0502

All figures here come from BigSolDB 2.1.
